FYI, the data here is from patent US20250382332A1.

test system: Botrytis cinerea (B05.10); assay: Resazurin antifungal assay of 180 alpha-factor peptide variants towards Botrytis (Example 2); assay type: cell-based; details: % inhibition of fungal growth, Botrytis conidia, peptide 100 μM, resazurin
Peptide text beside a SMILES is read from it.
Catalogue of Inhibition at 100 μM values

compound: CSCC[C@H](NC(=O)[C@@H]1CCCN1C(=O)[C@H](CCC(N)=O)NC(=O)CNC(=O)[C@@H]1CCCN1C(=O)[C@H](CCCCN)NC(=O)[C@H](Cc1ccccc1)NC(=O)[C@H](CCC(=O)O)NC(=O)[C@H](CC(C)C)NC(=O)[C@@H](NC(=O)[C@H](Cc1c[nH]cn1)NC(=O)[C@@H](N)CCCCN)[C@@H](C)O)C(=O)N[C@@H](Cc1ccc(O)cc1)C(=O)O [compound 177] (H-KHTLEFKPGQPMY-OH; N-terminus and C-terminus assumed)
Inhibition at 100 μM: <90%
//
compound: CSCC[C@H](NC(=O)[C@@H]1CCCN1C(=O)[C@H](CCC(N)=O)NC(=O)CNC(=O)[C@H](CC(C)C)NC(=O)[C@H](CCCCN)NC(=O)[C@H](Cc1ccccc1)NC(=O)[C@H](CCC(N)=O)NC(=O)CNC(=O)[C@H](Cc1c[nH]c2ccccc12)NC(=O)[C@H](Cc1c[nH]cn1)NC(=O)[C@@H]1CCCN1)C(=O)N[C@@H](Cc1ccc(O)cc1)C(=O)O [compound 43] (H-PHWGQFKLGQPMY-OH; N-terminus and C-terminus assumed)
Inhibition at 100 μM: <90%
//
compound: CC[C@H](C)[C@H](NC(=O)[C@H](CCC(N)=O)NC(=O)[C@H](CC(C)C)NC(=O)[C@H](Cc1c[nH]c2ccccc12)NC(=O)[C@H](CO)NC(=O)[C@@H](N)CCCCN)C(=O)N[C@@H](CCCCN)C(=O)N[C@@H](CC(N)=O)C(=O)NCC(=O)N[C@@H](CCC(N)=O)C(=O)N1CCC[C@H]1C(=O)N[C@@H](CCSC)C(=O)N[C@@H](Cc1ccc(O)cc1)C(=O)O [compound 152] (H-KSWLQIKNGQPMY-OH; N-terminus and C-terminus assumed)
Inhibition at 100 μM: <90%
